Taken from the supplement of paper PMC9170038.

- Tested on: K4 kissing-loop RNA reporter;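 also: bound reporter read as fluorescence of individual clusters on recovered sequencing chips by microscopy, with normalized cluster intensities fitted with a binding model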
- protocol_details: apparent KD of K4 kissing-loop reporter; higher = weaker reporter binding
- experimental_setup: Eterna round: R107; input ligand: FMN 200 uM
attribute_measured: apparent KD of K4 kissing-loop reporter (nM)
Numbers only, in nM.

UCCUUAUCGCGGUCAUAAAGCCUAUAAAACAAGGAUAUCUCAUCAGAGAGAAGGUGUGAGUGAUGUUCAAAGGCCACCACGGGUU [theeternabot_sameState_KL_FMN_A_47] : 654
GGGCGCGGCGCGGCCGCCACUGGGCCUGGGCGCUCGCUGAGUGAUGUUCGUCGGCGGCUGGGUCGUAGGACCGGGUGCCGGCUGG [BDazzled - #4 SS Tryptophan B] : 735
UUCUUGAUGGAAACAUCGAGUAUUACUGAUACCAGUAUCGAUAGAUACCCUUGGCAGCAGAAUCAGUAAUAACGAGUGAUGUUCG [Ex Theophylline A K4 5] : 509
UGUCAUUGGUCGGCCGCCACUUCAUAAAGAGUGAUGUUCUUAAAGACGGAUCGAAAGAUCUGUCGAAGGACCGGGACCGAUGACU [FiskerMod 8 - Jieux - Same State - Tryptophan B] : 1330

Measured apparent KD of K4 kissing-loop reporter, CUCGAGUGAUGUUCGAUUAUUUAUACAGAUACCAGUGAAUUUUAACACCCUUGGCAGCUGGUUGUAUCUUUGUUUUUUACACAAG [JR_ExcTheophyA_Sub006] : 117

====

- Test system: MS2 coat protein
- protocol_details: apparent KD of MS2 coat protein; designed switch direction (-1 OFF switch, 1 ON switch): 1; higher = weaker reporter binding
- experimental_setup: Eterna round: R95; input ligand: microRNA oligo, concentration not stated
attribute_measured: apparent KD of MS2 coat protein (nM)
Give bare numbers, in nM.

Please review the following examples before continuing.
CGUCCAGCCUGAGCUGGACAAAAGCAUGUACAUGAGGAUCACCCAUGUUCAUGUACAAGCUUUUUGCUCGUCUUAGA [salish99_208a_r3_072] (puzzle: Sensor for hsa-mir-208a) : 15.3
GGAGCCUGCACUGAGGAUAUUCAUAGUGUAACAUGAGGAUCACCCAUGUAGGCCCUGAGGCCUUGGGAGAAGGCAGUGCGGCUCG [JL-ss2-3.05 ViennaUCT mod] (puzzle: Same State 2) : 355

UAGAGAGGAAGCGAGGAUAUCGUGUUAGGUACAUGAGGAUCACCCAUGUUUUAGGUAGAGGUAGGCGAGAAGGCGCAGGAGAGGA [JR_SS2_Sub091] (puzzle: Same State 2) tested on MS2 coat protein gave apparent KD of MS2 coat protein: 29.2

====

- System: MS2 coat protein
- protocol_details: apparent KD of MS2 coat protein; designed switch direction (-1 OFF switch, 1 ON switch): -1; higher = weaker reporter binding
- experimental_setup: input ligand: none
attribute_measured: apparent KD of MS2 coat protein (nM)
Give bare numbers, in nM.

For each of the sequences below, note its apparent KD of MS2 coat protein.
1. ACAUGAGGAUCACCCAUGUUUGUUGGGUACUCUUUUUACAGCAAGGAUAUGCAUGUUUUUUUUACGCAGAAGGUGCUGGACGUC [JR_ExcNG3_Sub068] (Eterna round: R96, puzzle: Exclusion NG 3)
2. AUAAGUGAUAAGGAUAUUACUAGCUGCGGCUAGUGAGAAGGUAUCACAUGAGGAUCACCCAUGUGUUCCAAUAA [Ex6/7-B3] (Eterna round: R97, puzzle: Exclusion 6)
3. ACAUGAGGAUCACCCAUGUGCCCAUCUAGCACAUGUCCUCGCUAGGAUAUGUAGGCCUCGACGCCGCAGAAGGAGCUAAAAGAG [Raatlaan] (Eterna round: R96, puzzle: Exclusion NG 3)
4. AGCUUUUUGCUCGUCUUAUACAUGAGGAUCACCCAUGUAUUGGACCACAUCGAUAGAUGUGGACCAAGAAGCGUGGU [Omdei Mir OFFv1 C4] (Eterna round: R97, puzzle: Sensor, turn-off variant 1)

-- reply
[653, 134, 64.5, 39.7]

For each of the sequences below, note its apparent KD of MS2 coat protein.
1. ACAUGUAUUGCAGGAUAUGGGACACAUGAGGAUCACCCAUGUGACCAUAUGUAAUGCCACGGGUCUCAGAAGGGUAUGUACAUG [Ex NG2 #44] (Eterna round: R96, puzzle: Exclusion NG 2)
2. AGCGCGUUCUAGGAUAUCCGGUGGGACACAUACGGAGAAGGAGAAACAUGAGGAUCACCCAUGUAUGGAGAUCG [Eternabot (L1) Solution 7] (Eterna round: R97, puzzle: Exclusion 6)
3. GAUCAACAAUCGAGCGGAUACAUGAGGAUCACCCAUGUCCGUAGUCGGGUAAAUAACAAGCUUUUUUCGCCGUCCCU [Eternabot (Original) Solution 42] (Eterna round: R97, puzzle: Sensor, turn-off variant 1)
4. UACAUGUGAGGAUAUUAGUAGUAAAUAAAUAAAAUUAUUACUGAGAAGGUACAUGAGGAUCACCCAUGUUCCUU [Salish 062 v23] (Eterna round: R97, puzzle: Exclusion 4)

-- reply
1. 14.1
2. 102
3. 14.9
4. 12.7

Measured apparent KD of MS2 coat protein, CAGAAGGGAGGAUAUACAUGACCGUUUUAAUGGUUUUUAGUACAUGAGGAUCACCCAUGUAGAAGGCCCGAACU [EX2 B.23] (Eterna round: R97, puzzle: Exclusion 2) : 21.8
